Protocol: Highest frequency of moderate liver toxicity observed during clinical trials, expressed as a percentage. [column '% BIOL' in source]
Assay Context: human
Reported Metric: Hepatotoxicity (moderate) (%)
Give bare numbers, in %.

Examples with their reported Hepatotoxicity (moderate) follow.
# Compound, Reported Metric, Unit Name, Reported Measurement
rows = [
    ("CC1CCN(CCCC(=O)c2ccc(F)cc2)CC1", "Hepatotoxicity (moderate)", "%", 12),
    ("Cc1cc(O)c(C(=O)N[C@@H](C(=O)N[C@@H]2C(=O)N3C(C(=O)O)=C(CSc4nnnn4C)CS[C@H]23)c2ccc(O)cc2)cn1 [CEFPIRAMIDE]", "Hepatotoxicity (moderate)", "%", 10),
    ("CCC(C(=O)NC(N)=O)c1ccccc1 (centres undefined) [PHENETURIDE]", "Hepatotoxicity (moderate)", "%", 0),
    ("O=C1NCCN1c1ncc([N+](=O)[O-])s1", "Hepatotoxicity (moderate)", "%", 0),
    ("COc1ccc(CN2CCNCC2)c(OC)c1OC", "Hepatotoxicity (moderate)", "%", 0),
    ("CC1(C)S[C@@H]2[C@H](NC(=O)Cc3ccccc3)C(=O)N2[C@H]1C(=O)O", "Hepatotoxicity (moderate)", "%", 13.2),
    ("Cc1cccc(Nc2ccncc2S(=O)(=O)NC(=O)NC(C)C)c1 [TORSEMIDE]", "Hepatotoxicity (moderate)", "%", 0.6),
    ("CN(C)C(=O)OC1N=C(c2ccccc2)c2cc(Cl)ccc2N(C)C1=O (centres undefined)", "Hepatotoxicity (moderate)", "%", 0),
    ("NCC(=O)CCC(=O)O", "Hepatotoxicity (moderate)", "%", 66.7),
    ("CCOC(=O)Nc1ccc2c(c1)N(C(=O)CCN1CCOCC1)c1ccccc1S2", "Hepatotoxicity (moderate)", "%", 1.2),
]

Would you mind giving Hepatotoxicity (moderate) for every compound in the list below?
1. CCOC(=O)CN[C@@H](C(=O)N1CC[C@H]1C(=O)NCc1ccc(/C(N)=N\O)cc1)C1CCCCC1
2. CN1C(CSCC(F)(F)F)Nc2cc(Cl)c(S(N)(=O)=O)cc2S1(=O)=O (centres undefined) [POLYTHIAZIDE]
3. CC(=O)Oc1cc(C(C)C)c(OCCN(C)C)cc1C

[9.8, 0, 0]

Source listed as ChEMBL document CHEMBL3137667.
